- System: L1210 leukemia ip in BDF1 mice, survival T/C
- ASSAY_REMARKS: NCI In Vivo Anticancer Drug Screen. Data for tumor model L1210 Leukemia (intraperitoneal) in B6D2F1 (BDF1) mice
- PARTICULARS: endpoint: mean survival time; dose: 400.0 mg/kg/injection; schedule: Q04DX002 (ip); vehicle: saline; higher = longer survival
Inconclusive results and toxic doses are left out.

COMPOUND	EXPERIMENTAL_TARGET	T/C
O=C1OC(c2ccc(Cl)cc2)=N/C1=C\c1ccc(Cl)c(Cl)c1	L1210 leukemia ip in BDF1 mice, survival T/C	100 % of control
CCCC(=O)N1CCCC1	L1210 leukemia ip in BDF1 mice, survival T/C	111 % of control
CC1(C)OC2COC3(COC(C)(C)O3)C(O)C2O1 (configuration not stated)	L1210 leukemia ip in BDF1 mice, survival T/C	104 % of control
CCS(=O)(=O)CC(C)O (configuration not stated)	L1210 leukemia ip in BDF1 mice, survival T/C	108 % of control
O=C(CCCCl)N1CCCC1	L1210 leukemia ip in BDF1 mice, survival T/C	94 % of control
CCCC#CC(=O)OCCCCCC	L1210 leukemia ip in BDF1 mice, survival T/C	103 % of control
c1ccc2c[s+]ccc2c1	L1210 leukemia ip in BDF1 mice, survival T/C	103 % of control

====

- Test system: L1210 leukemia ip in BDF1 mice, survival T/C
- ASSAY_REMARKS: NCI In Vivo Anticancer Drug Screen. Data for tumor model L1210 Leukemia (intraperitoneal) in B6D2F1 (BDF1) mice
- PARTICULARS: endpoint: mean survival time; dose: 50.0 mg/kg/injection; schedule: Q01DX009 (ip); vehicle: saline with Tween-80; higher = longer survival
Toxic doses and inconclusive results are not listed.
ATTRIBUTE_MEASURED: T/C

COc1coc(CO)cc1=O 94 % of control
CCOC/C=C\c1ccccc1 95 % of control
COC1=C(OC)C(=O)C(Sc2ccc3ccccc3c2)=CC1=O 96 % of control

====

- Test system: L1210 leukemia ip in BDF1 mice, survival T/C
- ASSAY_REMARKS: NCI In Vivo Anticancer Drug Screen. Data for tumor model L1210 Leukemia (intraperitoneal) in B6D2F1 (BDF1) mice
- PARTICULARS: endpoint: mean survival time; dose: 400.0 mg/kg/injection; schedule: Q01DX009 (ip); vehicle: Klucel (hydroxypropylcellulose) (HPC); higher = longer survival
Inconclusive results and toxic doses are left out.
ATTRIBUTE_MEASURED: T/C

COMPOUND	OBSERVED_RESULT
COc1ccc(OC(=O)Nc2ccccc2OC)cc1	95 % of control
CC(C)N(C(=O)Nc1cccc(C(F)(F)F)c1)c1ccccc1	87 % of control
CC1CC(NC(=S)NC(=O)c2ccc(Cl)cc2Cl)CC(C)(C)C1 (configuration not stated)	91 % of control
c1ccc2c(CCc3ccncc3)cccc2c1	97 % of control
COC(=O)C(Br)C(Br)N1C(=O)c2ccccc2C1=O (configuration not stated)	102 % of control
CCOc1ccc(/C=C2\N=C(c3ccccc3)OC2=O)cc1OC	102 % of control
COc1cc(C=O)ccc1OC(=O)Nc1cccc(Cl)c1C	103 % of control
CCOC(=O)c1cc(C(=O)OCC)c(C#N)c(=O)[nH]1	94 % of control
Clc1ccc(/C=C2\c3cc(Cl)ccc3-c3c(Cl)cc(Cl)cc32)cc1	86 % of control
Cc1cc(Cl)c(Cl)cc1NC(=O)c1c(Br)c(Br)c(Br)c(Br)c1C(=O)O	95 % of control
O=C(Nc1cc(Cl)ccc1Cl)c1ccccc1Cl	92 % of control
O=C(Cc1ccccc1)OCC#CC#CCOC(=O)Cc1ccccc1	97 % of control
CC1C=CC(C)C(C(=O)c2ccccc2)C1C(=O)c1ccccc1 (configuration not stated)	92 % of control
Nc1cc(Cl)c(Cl)cc1S(=O)(=O)O	92 % of control
CC(C)=NOS(=O)(=O)c1c(C)cc(C)cc1C	97 % of control
Cc1cc(C)c(C#N)c(=O)[nH]1	88 % of control
C/C(=N\NC(N)=O)C1CCC(c2ccccc2)CC1 (configuration not stated)	91 % of control
